Hey, just so you know, these numbers are from patent US12364709B2.

PROTOCOL_DESCRIPTION: 5 day repeat oral dosing PK of AMXT 1501 dicaprate
Assay type: in vivo, beagle dogs
PARTICULARS: both sexes, beagle, dog, plasma, po, 8 mg/kg, 8 mg/kg PO, Day 1, group mean; read-out: Tmax Mean
READOUT_LABEL: Tmax (h)
Give just the numeric value; h need not be written.

Exam item: Using known records, supply Tmax for CCCCCCCCCCCCCCCC(=O)NCCCC[C@@H](N)C(=O)NCCCNCCCCNCCCN [AMXT 1501 dicaprate]
Marked response: 6

---

PROTOCOL_DESCRIPTION: 28-day repeat-dose toxicity study, toxicokinetics of AMXT 1501 dicaprate
Assay type: in vivo, beagle dogs
PARTICULARS: both sexes, beagle, dog, plasma, po, 8 mg/kg/day, 8 mg/kg/day PO, DFMO 50 mg/kg/day, Day 28, M+F combined; read-out: Cmax Mean
READOUT_LABEL: Cmax (ng/mL)
Give just the numeric value; ng/mL need not be written.

Exam item: Using known records, supply Cmax for CCCCCCCCCCCCCCCC(=O)NCCCC[C@@H](N)C(=O)NCCCNCCCCNCCCN [AMXT 1501 dicaprate]
Marked response: 152
